Can you tell me IC50 for the items I'm about to list?
Biological target: endogenous TopI from the whole cell extracts of human breast adenocarcinoma (MCF7) cell (Homo sapiens, UniProt P11387)
Construct: TopI enzyme in the extract is conserved in its native structure among a plethora of other cellular proteins; endogenous in cells
Sequence (P11387 1-765): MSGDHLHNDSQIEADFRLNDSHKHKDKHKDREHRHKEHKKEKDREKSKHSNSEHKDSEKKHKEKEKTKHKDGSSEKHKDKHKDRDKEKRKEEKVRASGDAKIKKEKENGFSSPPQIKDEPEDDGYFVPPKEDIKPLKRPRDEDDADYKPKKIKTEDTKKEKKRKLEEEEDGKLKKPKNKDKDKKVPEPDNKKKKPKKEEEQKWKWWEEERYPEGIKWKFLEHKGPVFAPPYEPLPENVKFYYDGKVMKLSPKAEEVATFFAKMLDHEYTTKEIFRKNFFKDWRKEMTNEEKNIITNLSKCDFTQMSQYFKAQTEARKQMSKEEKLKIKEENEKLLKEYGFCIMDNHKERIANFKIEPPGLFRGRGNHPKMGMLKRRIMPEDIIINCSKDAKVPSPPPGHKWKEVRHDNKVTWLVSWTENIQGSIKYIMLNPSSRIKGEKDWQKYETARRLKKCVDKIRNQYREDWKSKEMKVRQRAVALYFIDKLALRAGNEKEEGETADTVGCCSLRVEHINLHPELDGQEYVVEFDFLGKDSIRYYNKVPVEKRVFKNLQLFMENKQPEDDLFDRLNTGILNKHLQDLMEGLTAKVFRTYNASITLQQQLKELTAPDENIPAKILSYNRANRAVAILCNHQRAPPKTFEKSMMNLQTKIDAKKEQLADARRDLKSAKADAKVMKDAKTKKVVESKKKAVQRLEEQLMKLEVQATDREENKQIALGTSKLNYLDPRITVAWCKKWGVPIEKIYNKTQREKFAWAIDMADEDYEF
Experiment: Plasmid DNA relaxation assay with MCF7 cell lysates (ex vivo)
Conditions: MCF7 cell lysates as source of TopI
Answers are plain numbers, in nM.

Sample answers from the record:
- mol.smiles: "Cc1ccc(-c2ccc3ncc(-c4nnco4)c(NCCCn4ccnc4)c3c2)cc1"
  IC50 [nM]: 3750
- mol.smiles: "COc1ccc(-c2ccc3ncc(-c4nnco4)c(NCCCn4ccnc4)c3c2)cc1C"
  IC50 [nM]: 3000

Record summary for "c1cncc(-c2ccc3ncc(-c4nnco4)c(NCCCn4ccnc4)c3c2)c1" : reported IC50 = 1250
